molecular target: T1, human CD52 (wildtype) (human, not fully specified (residue 3); also: N-linked glycan, GPI anchor); assay: flow cytometry, huCD52 transgenic mouse CD4+ T cells, FITC goat F(ab)2 anti-human Fc gamma secondary, GraphPad Prism fit (Example 29)
T1 construct: also called huCD52; hCD52
T1 chain: GQNDTSQTSSPS
pEC50: −log10 of the molar value. Ends that are not written are not given here.
# pEC50 values compiled below

- binder: "humanized antibody 12G6-SFD1/K11 (antibody, human IgG1, V domains shown, also called 12G6 K11; 12G6 hu) VH: EVQLVESGGGLVQPGGSLRLSCAASGFPFSNYWMNWVRQAPGKGLEWVGQIRLKSNNYATHYAESVKGRFTISRDDSKNSLYLQMNSLKTEDTAVYYCTPIDYWGQGTTVTVSS VL: DIVMTQTPLSLSVTPGQPASISCKSSQSLLYSNGKTYLNWVLQKPGQSPKRLIYLVSKLDSGVPDRFSGSGSGTDFTLKISRVEAEDVGVYYCVQGSHFHTFGQGTKLEIK"
  pEC50: 7.88
- binder: "Campath-1H® (alemtuzumab) (antibody, IgG1, V domains shown, Humanized IgG1/kappa; also called C1H; C-1H; copies: 2 + 2) VH: QVQLQESGPGLVRPSQTLSLTCTVSGFTFTDFYMNWVRQPPGRGLEWIGFIRDKAKGYTTEYNPSVKGRVTMLVDTSKNQFSLRLSSVTAADTAVYYCAREGHTAAPFDYWGQGSLVTVSS VL: DIQMTQSPSSLSASVGDRVTITCKASQNIDKYLNWYQQKPGKAPKLLIYNTNNLQTGVPSRFSGSGSGTDFTFTISSLQPEDIATYYCLQHISRPRTFGQGTKVEIKR"
  pEC50: 7.60
- binder: "humanized antibody 2C3-SFD1/K12 (antibody, V domains shown, also called 2C3 K12; 2C3 unmodified) VH: EVQLVESGGGLVQPGGSLRLSCAASGFTFNTYWMNWVRQAPGKGLEWVGQIRLKSNNYATHYAESVKGRFTISRDDSKNSLYLQMNSLKTEDTAVYYCTPVDFWGQGTTVTVSS VL: DIVMTQTPLSLSVTPGQPASISCKSSQSLLYSNGKTYLNWLLQKPGQSPQRLIYLVSKLDSGVPDRFSGSGSGTDFTLKISRVEAEDVGVYYCVQGTHLHTFGQGTRLEIKR"
  pEC50: 7.87
